Target: JAK2 (Homo sapiens, UniProt O60674)
Construct: purchased Carna Biosciences, Inc
Sequence (O60674 whole entry): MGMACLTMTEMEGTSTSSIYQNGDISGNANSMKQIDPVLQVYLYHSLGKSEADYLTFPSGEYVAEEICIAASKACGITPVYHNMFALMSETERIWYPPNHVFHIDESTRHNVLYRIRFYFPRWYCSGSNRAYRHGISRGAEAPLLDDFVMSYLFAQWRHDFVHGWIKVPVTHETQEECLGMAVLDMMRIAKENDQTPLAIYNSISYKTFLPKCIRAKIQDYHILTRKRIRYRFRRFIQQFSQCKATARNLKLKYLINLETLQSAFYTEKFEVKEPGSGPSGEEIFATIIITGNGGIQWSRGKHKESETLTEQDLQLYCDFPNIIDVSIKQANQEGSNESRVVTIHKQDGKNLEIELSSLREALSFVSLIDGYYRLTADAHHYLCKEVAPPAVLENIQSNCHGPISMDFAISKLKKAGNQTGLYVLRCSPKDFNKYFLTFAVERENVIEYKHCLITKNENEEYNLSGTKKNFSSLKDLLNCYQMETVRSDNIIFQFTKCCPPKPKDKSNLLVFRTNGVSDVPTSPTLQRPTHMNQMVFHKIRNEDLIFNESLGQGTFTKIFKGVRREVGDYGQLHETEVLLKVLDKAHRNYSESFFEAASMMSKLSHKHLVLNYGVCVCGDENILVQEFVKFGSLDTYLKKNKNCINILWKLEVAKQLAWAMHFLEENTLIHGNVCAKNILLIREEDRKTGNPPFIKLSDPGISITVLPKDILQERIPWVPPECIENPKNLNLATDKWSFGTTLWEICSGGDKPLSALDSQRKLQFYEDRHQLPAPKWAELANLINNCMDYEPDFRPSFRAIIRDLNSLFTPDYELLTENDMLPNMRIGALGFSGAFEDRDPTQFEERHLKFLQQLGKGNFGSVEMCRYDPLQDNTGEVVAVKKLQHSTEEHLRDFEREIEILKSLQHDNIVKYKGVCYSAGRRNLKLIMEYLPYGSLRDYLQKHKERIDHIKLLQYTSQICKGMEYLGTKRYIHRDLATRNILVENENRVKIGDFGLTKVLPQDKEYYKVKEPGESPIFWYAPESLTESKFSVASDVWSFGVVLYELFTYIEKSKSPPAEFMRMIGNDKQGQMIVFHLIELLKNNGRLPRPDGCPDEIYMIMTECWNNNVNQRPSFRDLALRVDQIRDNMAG
Experiment: JAK tyrosine kinase inhibitory activity in the presence of 1 mM ATP (ELISA), JAK2
Type: biochemical
Description: 1. Preparation of Test Compound The test compound was dissolved in dimethyl sulfoxide (DMSO) to 10 mM and further diluted with DMSO to the concentrations of 1000, 100, 10, 1, 0.1 and 0.01 μM, respectively. For JAK1, these solutions of the test compound at the six concentrations 10 mM, 1000 μM, 100 μM, 10 μM, 1 μM and 0.1 μM were used. […] The activity was determined by ELISA method. […] The absorbance at 450 nm was measured using a microplate reader (BIO-RAD). […]
Measurement Name: IC50

INSERT INTO results (structure_smiles_string, tested_on, result) VALUES
  ('COC(=O)NC1CCN(C(=O)c2cc(NCC(C)(C)CC3CC3)nc(-c3cnn4ccsc34)n2)CC1', 'JAK2 (Homo sapiens, UniProt O60674)', '> 10000 nM'),
  ('C[C@@H](Nc1cc(C(=O)N2CCC(NC(=O)c3ccccc3)CC2)nc(-c2cnn3ccsc23)n1)C(C)(C)C', 'JAK2 (Homo sapiens, UniProt O60674)', '> 10000 nM'),
  ('COC(=O)N1CCC(Nc2cc(C(=O)N3CCC(NC(=O)C4CC4)CC3)nc(-c3cnn4ccsc34)n2)CC1', 'JAK2 (Homo sapiens, UniProt O60674)', '> 10000 nM'),
  ('Cc1c(N[C@@H](C)C(C)(C)C)nc(-c2cnn3ccsc23)nc1C(=O)N1CCC(NC(=O)C2CC2)CC1', 'JAK2 (Homo sapiens, UniProt O60674)', '> 10000 nM');
